Test system: S. mutans wild-type UA159
Assay overview: S. mutans acid resistance assay (growth in THYE at pH 7.5 and pH 5.5)
Format: cell-based, Streptococcus mutans
Experimental parameters: 5 μg/ml of peptide analog; growth in THYE pH 5.5
Parameter: Acid resistance (pH 5.5)

INSERT INTO assay_data (substance, parameter, measurement) VALUES
  ('D1: S. mutans CSP analog, 4th residue removed from N′ (SGSLSTFFRLFNRSFTQLGK; H1 peptide analog)', 'Acid resistance (pH 5.5)', 'growth'),
  ('C1: S. mutans CSP analog, 3rd residue removed from N′ (SGSLSTFFRLFNRSFTQAGK; G1 peptide analog)', 'Acid resistance (pH 5.5)', 'growth'),
  ('E1: S. mutans CSP analog, 5th residue removed from N′ (SGSLSTFFRLFNRSFTALGK; A2 peptide analog)', 'Acid resistance (pH 5.5)', 'growth');

---

Test system: S. mutans wild-type UA159
Assay overview: S. mutans acid resistance assay (growth in THYE at pH 7.5 and pH 5.5)
Assay type: cell-based, Streptococcus mutans
Experimental parameters: 5 μg/ml of peptide analog; THYE pH 7.5
Parameter: Growth (pH 7.5)

INSERT INTO assay_data (substance, parameter, measurement) VALUES
  ('IH-1: S. mutans CSP analog, 1st residue removed from N′ (SGSSTFFRLFNRSFTQALGK; D1 peptide analog)', 'Growth (pH 7.5)', '↓growth'),
  ('SGSLSTFFRLFNVSFTQALGK [D2, S. mutans CSP analog, substitution of 2nd R residue with V]', 'Growth (pH 7.5)', 'no effect'),
  ('SGSLSTFFVLFNRSFTQALGK (SGSLSTFFRLFNRSFTQALGV; F2 peptide analog) [B2, S. mutans CSP analog, substitution of 1st R residue with V]', 'Growth (pH 7.5)', 'no effect'),
  ('SGTLSTFFRLFNRSFTQALGK [B3]', 'Growth (pH 7.5)', 'no effect'),
  ('H1: S. mutans CSP analog, 4th residue removed from C′ (SGSLSTFFRLFNVSFTQALGK; D2 peptide analog)', 'Growth (pH 7.5)', 'no effect'),
  ('A2: S. mutans CSP analog, 5th residue removed from C′ (SGSLSTFFRLFNASFTQALGK; E2 peptide analog)', 'Growth (pH 7.5)', 'no effect'),
  ('E1: S. mutans CSP analog, 5th residue removed from N′ (SGSLSTFFRLFNRSFTALGK; A2 peptide analog)', 'Growth (pH 7.5)', '↓growth'),
  ('D1: S. mutans CSP analog, 4th residue removed from N′ (SGSLSTFFRLFNRSFTQLGK; H1 peptide analog)', 'Growth (pH 7.5)', '↓growth'),
  ('G1: S. mutans CSP analog, 3rd residue removed from C′ (SGSLSTFFALFNRSFTQALGK; C2 peptide analog)', 'Growth (pH 7.5)', '↓growth'),
  ('C1: S. mutans CSP analog, 3rd residue removed from N′ (SGSLSTFFRLFNRSFTQAGK; G1 peptide analog)', 'Growth (pH 7.5)', '↓growth'),
  ('IH-2: S. mutans CSP analog, 1st residue removed from C′ (SGSLTFFRLFNRSFTQALGK; E1 peptide analog)', 'Growth (pH 7.5)', '↓growth');

---

System: S. mutans wild-type UA159
Assay overview: S. mutans acid resistance assay (growth in THYE at pH 7.5 and pH 5.5)
Assay type: cell-based, Streptococcus mutans
Experimental parameters: 5 μg/ml of peptide analog; THYE pH 7.5
Parameter: Growth (pH 7.5)

INSERT INTO assay_data (substance, target_of_assay, measurement) VALUES
  ('B1: S. mutans CSP analog, 2nd residue removed from N′ (SGSLSTFFRLFNRSFTQALK; F1 peptide analog)', 'S. mutans wild-type UA159', '↓growth'),
  ('SGSLSTFFRLFNRSFTQALGK (MKKTLSLKNDFKEIKTDELEIIIGGSGSLSTFFRLFNRSFTQALGK; Streptococcus mutans) [CSP, reference compound]', 'S. mutans wild-type UA159', '↓growth');
